- system: Kes1 (Kes1/Osh4) (Saccharomyces cerevisiae, UniProt P35844, K242E/K243E/R236E)
- test: [3H]-cholesterol saturation binding, sterol:detergent micelle assay
result type: Kd

compound: CC(C)CCC[C@@H](C)[C@H]1CC[C@H]2[C@@H]3CC=C4C[C@@H](O)CC[C@]4(C)[C@H]3CC[C@]12C [[^3H]-Cholesterol]
system: Kes1 (Kes1/Osh4) (Saccharomyces cerevisiae, UniProt P35844, K242E/K243E/R236E)
observed result: 0.5 to 0.8 µM

* * *

- system: Kes1 (Kes1/Osh4) (Saccharomyces cerevisiae)
- test: [3H]-cholesterol saturation binding, sterol:detergent micelle assay
pKd: −log10 of the molar value.
result type: pKd

molecule: CC(C)CCC[C@@H](C)[C@H]1CC[C@H]2[C@@H]3CC=C4C[C@@H](O)CC[C@]4(C)[C@H]3CC[C@]12C [[^3H]-Cholesterol]
observed result: 6.10 to 6.30
